All values here come from patent US20240408216A1.

IC50 overview
study.target: BaF3 (EGFR Del19/C797S) (Homo sapiens, UniProt P00533, C797S, cells depend on it, form not given)
Construct: BaF3 (EGFR Del19/C797S)|DC|RPMI1640 + 10% FBS
Sequence (P00533 with tags, fused parts or gaps DEL746-750/C797S, form open): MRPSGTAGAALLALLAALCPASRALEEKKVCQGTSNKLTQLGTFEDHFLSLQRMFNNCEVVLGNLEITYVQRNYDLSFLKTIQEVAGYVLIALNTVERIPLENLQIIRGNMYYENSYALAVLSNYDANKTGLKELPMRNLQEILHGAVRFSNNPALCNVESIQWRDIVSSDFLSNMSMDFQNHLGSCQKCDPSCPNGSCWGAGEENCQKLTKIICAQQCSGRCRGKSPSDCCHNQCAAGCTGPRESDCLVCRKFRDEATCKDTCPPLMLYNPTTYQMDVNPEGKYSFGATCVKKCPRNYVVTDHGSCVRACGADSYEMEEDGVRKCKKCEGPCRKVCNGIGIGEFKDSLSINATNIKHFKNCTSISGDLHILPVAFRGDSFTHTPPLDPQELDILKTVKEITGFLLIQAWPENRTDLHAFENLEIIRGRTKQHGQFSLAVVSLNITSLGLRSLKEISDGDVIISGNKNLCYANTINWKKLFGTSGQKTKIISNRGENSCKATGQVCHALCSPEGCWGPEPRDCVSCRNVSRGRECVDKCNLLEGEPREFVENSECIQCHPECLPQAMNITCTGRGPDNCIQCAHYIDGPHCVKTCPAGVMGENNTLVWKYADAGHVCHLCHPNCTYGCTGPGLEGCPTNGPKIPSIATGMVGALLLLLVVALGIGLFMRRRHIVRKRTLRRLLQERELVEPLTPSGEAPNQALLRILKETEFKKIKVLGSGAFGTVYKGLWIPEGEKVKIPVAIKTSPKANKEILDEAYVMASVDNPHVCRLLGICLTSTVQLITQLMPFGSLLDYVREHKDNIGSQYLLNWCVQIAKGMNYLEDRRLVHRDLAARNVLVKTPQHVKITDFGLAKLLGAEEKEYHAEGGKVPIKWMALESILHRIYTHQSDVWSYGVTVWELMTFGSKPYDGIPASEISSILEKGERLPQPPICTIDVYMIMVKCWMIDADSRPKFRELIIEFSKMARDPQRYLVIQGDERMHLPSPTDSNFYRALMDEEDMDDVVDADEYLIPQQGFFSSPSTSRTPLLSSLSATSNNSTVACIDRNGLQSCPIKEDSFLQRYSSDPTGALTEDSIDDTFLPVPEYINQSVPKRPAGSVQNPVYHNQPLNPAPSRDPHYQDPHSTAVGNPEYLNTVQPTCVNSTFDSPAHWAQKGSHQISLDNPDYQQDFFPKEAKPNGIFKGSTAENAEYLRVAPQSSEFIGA
procedure.details: Cell proliferation IC50 assay (Cell Titer GLO), BaF3 DC cells
Assay type: cell-based, mouse
study.conditions: Table 7, 72 h
outcome.measure: IC50 (nM)

>>> number("COc1cc(N2CCC(N3CCN(CCC#Cc4cccc5c4CN(C4CCC(=O)NC4=O)C5=O)CC3)CC2)c(C2CC2)cc1Nc1ncc(Cl)c(Nc2ccccc2P(C)(C)=O)n1 (stereo not drawn)")
20.4
>>> number("CCc1cc(Nc2ncc(Cl)c(Nc3ccccc3P(C)(C)=O)n2)c(OC)cc1N1CCC2(CCN(CCCC#Cc3cccc4c3CN(C3CCC(=O)NC3=O)C4=O)CC2)CC1 (stereo not drawn)")
9.1
>>> number("CCc1cc(Nc2ncc(Cl)c(Nc3ccccc3P(C)(C)=O)n2)c(OC)cc1N1CCC(N2CCN(CCC#Cc3cccc4c3CN(C3CCC(=O)NC3=O)C4=O)CC2)CC1 (single isomer, unassigned)")
4.8

###

study.target: BaF3 (EGFR Del19/C797S) (Homo sapiens, UniProt P00533, C797S, cells depend on it, form not given)
Construct: BaF3 (EGFR Del19/C797S)|DC|RPMI1640 + 10% FBS
procedure.details: Cell proliferation IC50 assay (Cell Titer GLO), BaF3 DC cells
Format: cell-based, mouse
study.conditions: Table 6, 72 h
Label met when IC50 is strictly below 7 nM; otherwise label not met.

>>> assigned_label("CCc1cc(Nc2ncc(-c3cn(C)nn3)c(Nc3ccccc3P(C)(C)=O)n2)c(OC)cc1N1CCC(N2CCN(CCOc3ccc4c(c3)CN(C3CCC(=O)NC3=O)C4=O)CC2)CC1 (centres unmarked)")
"not met"
>>> assigned_label("CCc1cc(Nc2ncc(Cl)c(Nc3ccccc3P(C)(C)=O)n2)c(OC)cc1N1CCC(N2CCN(CCOc3cc(F)cc4c3CN(C3CCC(=O)NC3=O)C4=O)CC2)CC1 (centres unmarked)")
"not met"
>>> assigned_label("CCc1cc(Nc2ncc(-c3cn[nH]c3)c(Nc3ccccc3P(C)(C)=O)n2)c(OC)cc1N1CCC(N2CCN(CCOc3cccc4c3CN(C3CCC(=O)NC3=O)C4=O)CC2)CC1 (centres unmarked)")
"met"
>>> assigned_label("CCc1cc(Nc2ncc(Cl)c(Nc3ccccc3P(C)(C)=O)n2)c(OC)cc1N1CCC(N2CCN(CCCC#Cc3ccc4c(N5CCC(=O)NC5=O)nn(C)c4c3)CC2)CC1")
"not met"
>>> assigned_label("CCc1cc(Nc2ncc(Cl)c(Nc3ccccc3P(C)(C)=O)n2)c(OC(F)F)cc1N1CCC(N2CCN(CCOc3cccc4c3CN(C3CCC(=O)NC3=O)C4=O)CC2)CC1 (centres unmarked)")
"met"

###

study.target: BaF3 (EGFR Del19/C797S) (Homo sapiens, UniProt P00533, C797S, cells depend on it, form not given)
Construct: BaF3 (EGFR Del19/C797S)|DC|RPMI1640 + 10% FBS
procedure.details: Cell proliferation IC50 assay (Cell Titer GLO), BaF3 DC cells
Type: cell-based, mouse
study.conditions: Table 6, 72 h
outcome.measure: IC50 (nM)

>>> number("CCc1cc(Nc2ncc(Cl)c(Nc3ccccc3P(C)(C)=O)n2)c(OC)cc1N1CCC(N2CCN(CCCCOc3cc4c(cc3F)C(=O)N(C3CCC(=O)NC3=O)C4)CC2)CC1 (stereo not shown)")
12.7
>>> number("CCc1cc(Nc2ncc(Cl)c(Nc3ccccc3P(C)(C)=O)n2)c(OC)cc1N1CCC(N2CCN(C(C)(C)C#Cc3cccc4c3CN(C3CCC(=O)NC3=O)C4=O)CC2)CC1 (stereo not shown)")
16.7
>>> number("CCc1cc(Nc2ncc(Cl)c(Nc3ccccc3P(C)(C)=O)n2)c(OC)cc1N1CCC(N2CCN(C3(CC#Cc4cccc5c4CN(C4CCC(=O)NC4=O)C5=O)CC3)CC2)CC1 (stereo not shown)")
22.1
>>> number("CCc1cc(Nc2ncc(Cl)c(Nc3ccccc3P(C)(C)=O)n2)c(OC)cc1N1CCC(N2CCN([C@H]3C[C@H](Oc4cc5c(cc4F)C(=O)N(C4CCC(=O)NC4=O)C5)C3)CC2)CC1 (stereo partly shown)")
9.9
>>> number("COc1cc(N2CCC(N3CCN(CCCCOc4cccc5c4CN(C4CCC(=O)NC4=O)C5=O)CC3)CC2)c(CC#N)cc1Nc1ncc(Cl)c(Nc2ccccc2P(C)(C)=O)n1 (stereo not shown)")
1.3
>>> number("CCc1cc(Nc2ncc(-c3cnn(C)c3)c(Nc3ccccc3P(C)(C)=O)n2)c(OC)cc1N1CCC(N2CCN([C@H]3C[C@H](Oc4cccc5c4CN(C4CCC(=O)NC4=O)C5=O)C3)CC2)CC1 (stereo partly shown)")
0.7
>>> number("COc1cc(N2CCC3(CCN(CCCC#Cc4cccc5c4CN(C4CCC(=O)NC4=O)C5=O)CC3)CC2)c(C2CC2)cc1Nc1ncc(Cl)c(Nc2ccccc2P(C)(C)=O)n1 (stereo not shown)")
51.1
